# protocol-notes: Zeta-potential measurement
# Format: physicochemical
# condition-parameters: zeta-potential of peptide; source data of Figure 2C
Quick list: Zeta-Potential / mV per entry.
Record the value in mV, omitting the unit from your answer.

# count of solved cases: 10
substance: KIRGKFEKED
Zeta-Potential / mV [mV]: -7.197
//
substance: KIKIQIN
Zeta-Potential / mV [mV]: 4.4
//
substance: EFEFQF
Zeta-Potential / mV [mV]: -14.88
//
substance: KIKQIIN
Zeta-Potential / mV [mV]: -5.929
//
substance: CKAKAQA
Zeta-Potential / mV [mV]: -5.031
//
substance: QCKIKQII
Zeta-Potential / mV [mV]: 9.183
//
substance: KLKLKLQL
Zeta-Potential / mV [mV]: 8.477
//
substance: MKIKIQINM
Zeta-Potential / mV [mV]: 9.332
//
substance: KIKIQIW
Zeta-Potential / mV [mV]: 11.255
//
substance: CKIKQIINM
Zeta-Potential / mV [mV]: 13.87

Query string: Note Zeta-Potential / mV for the substance shown: KIKIQI
Result string: -2.515

Query string: Note Zeta-Potential / mV for the substance shown: IKVAVKIKIQINM
Result string: 14.18

Query string: Note Zeta-Potential / mV for the substance shown: KFKFKFQF
Result string: 16.32

Query string: Note Zeta-Potential / mV for the substance shown: CKFKFQFNM
Result string: 14.97

Query string: Note Zeta-Potential / mV for the substance shown: CKIKIQINMWQ
Result string: 12.25

Query string: Note Zeta-Potential / mV for the substance shown: KFKQFFNMWQ
Result string: -2.615

Query string: Note Zeta-Potential / mV for the substance shown: KIKIQIMWNQ
Result string: 4.42

Query string: Note Zeta-Potential / mV for the substance shown: CRFRFQF
Result string: 6.218

Query string: Note Zeta-Potential / mV for the substance shown: KLKQLL
Result string: -5.682

Query string: Note Zeta-Potential / mV for the substance shown: RGEKIKIQINM
Result string: 16.35

###

# Test system: HIV-1 infection of TZM-bl cells
# protocol-notes: HIV-1 infectivity enhancement assay, β-galactosidase luminescence
# Assay type: cell-based
# condition-parameters: peptide 0.26 µM, replicate 3, absolute infection signal, Figure 4A
Quick list: Infect 3 0.26 µM per entry.
Note: the reply should be a number with no unit written.

# count of solved cases: 4
substance: KAKAQA
measure-name: Infect 3 0.26 µM
value-observed: 156.67
--
substance: EIEIQINM
measure-name: Infect 3 0.26 µM
value-observed: 283.33
--
substance: CKFKQFF
measure-name: Infect 3 0.26 µM
value-observed: 790
--
substance: CSISIQI
measure-name: Infect 3 0.26 µM
value-observed: 1670

Could you now look at the following substance, please?
Query string: Note Infect 3 0.26 µM for the substance shown: KFKFQFF
Result string: 483.33

###

# protocol-notes: Aggregate analysis by widefield fluorescence microscopy
# Format: physicochemical
# condition-parameters: Fig S8 panels A, C
Output Met for records whose Avg Area in 3 *(1330 µm *1330 µm) is lower than 70, Not met for records at or above 70.

Examples with answers:
substance: KIKQIINMWQ [JG2]
assigned-category: Not met
//
substance: CQFQFQF [QBL4]
assigned-category: Not met
//
substance: CKFKQFF [CK15]
assigned-category: Not met
//
substance: QCKIKIQINMWQ [EF-C opt]
assigned-category: Met
//
substance: CKIKIQI [MG3b]
assigned-category: Met

Query string: Input HHHHKIKIKIKIWWWW [TM4] ; condition: Avg Area in 3 *(1330 µm *1330 µm) strictly below 70. Does it hold?
Result string: Met

Query string: Input CKFKFQFNM [BL3] ; condition: Avg Area in 3 *(1330 µm *1330 µm) strictly below 70. Does it hold?
Result string: Met

Query string: Input CKWKWQW [KB4] ; condition: Avg Area in 3 *(1330 µm *1330 µm) strictly below 70. Does it hold?
Result string: Not met

Query string: Input KWKWQW [KB3] ; condition: Avg Area in 3 *(1330 µm *1330 µm) strictly below 70. Does it hold?
Result string: Not met

Query string: Input KIKQIIN [JGA3] ; condition: Avg Area in 3 *(1330 µm *1330 µm) strictly below 70. Does it hold?
Result string: Met

Query string: Input CKIKQII [MG4a] ; condition: Avg Area in 3 *(1330 µm *1330 µm) strictly below 70. Does it hold?
Result string: Not met

Query string: Input CHLHLQL [CN9] ; condition: Avg Area in 3 *(1330 µm *1330 µm) strictly below 70. Does it hold?
Result string: Not met

Query string: Input CKFKFQF [BL4] ; condition: Avg Area in 3 *(1330 µm *1330 µm) strictly below 70. Does it hold?
Result string: Not met

Query string: Input KIKIQIN [JGB3] ; condition: Avg Area in 3 *(1330 µm *1330 µm) strictly below 70. Does it hold?
Result string: Not met

Query string: Input HIHIQIC [CN12] ; condition: Avg Area in 3 *(1330 µm *1330 µm) strictly below 70. Does it hold?
Result string: Not met

###

# Assay type: physicochemical
# Design: key: 1 = fibrils present; 0 non-fibrillar structures
# condition-parameters: TEM; 1 = fibrils present, 0 = non-fibrillar
measure-name: Fibril
Note: the reply should be a number with no unit written.

substance: HHHHKIKIKIKIWWWW
Fibril: 0
//
substance: KAKAKAQA
Fibril: 0
//
substance: KAKAQANM
Fibril: 0
//
substance: CRFRVPF
Fibril: 0

Query string: Note Fibril for the substance shown: KNERIKNERI
Result string: 0

Query string: Note Fibril for the substance shown: CSISIQINM
Result string: 1

Query string: Note Fibril for the substance shown: CKIKIQINMW
Result string: 1

Query string: Note Fibril for the substance shown: IKVAVKIKIQINM
Result string: 1

Query string: Note Fibril for the substance shown: KVKVKVQV
Result string: 0

Query string: Note Fibril for the substance shown: KFKFEFEF
Result string: 1

Query string: Note Fibril for the substance shown: KIKIKIQINMWQ
Result string: 1

Query string: Note Fibril for the substance shown: HHHHKIKIQINMYYYY
Result string: 1

Query string: Note Fibril for the substance shown: KIKIQIN
Result string: 1

###

# Tested on: HIV-1 infection of TZM-bl cells
# protocol-notes: HIV-1 infectivity enhancement assay, β-galactosidase luminescence
# Type: cell-based
# condition-parameters: infectivity enhancement relative to EF-C (=1); Feb2021 run
measure-name: Rel-to EFC (Feb-2021)
Note: the reply should be a number with no unit written.

# count of solved cases: 5
substance: KFKFQFFF [TG12]
value-observed: 0.404
//
substance: KIKIQIII [TG7]
value-observed: 0.3531
//
substance: RGDKIKIQINM [MG8a / CN17]
value-observed: 0.4132
//
substance: CEIEIQI [AR2/ TM142]
value-observed: 0.02791
//
substance: KIKQII [msis21]
value-observed: 0.004924

Could you now look at the following substance, please?
Query string: // output Rel-to EFC (Feb-2021); input CKIKQIINMWQ [MG5a / CK17] ; system HIV-1 infection of TZM-bl cells
Result string: 1.244

###

# protocol-notes: β-sheet content by ATR-FT-IR
# Format: physicochemical
# condition-parameters: Fig. S7 panel A; β-sheet content by ATR-FT-IR
measure-name: b -sheet / % (%)
Record the value in %, omitting the unit from your answer.

# count of solved cases: 10
substance: RGDKIKIQINMWQ
value-observed: 49.07
//
substance: CKAKAQA
value-observed: 34.73
//
substance: KLKLQLL
value-observed: 39.56
//
substance: CEIEIQINMWQ
value-observed: 49.9
//
substance: HHHHKIKIKIKIWWWW
value-observed: 48.8
//
substance: KIKIKIKIWW
value-observed: 48.82
//
substance: KIKIQINMWWQ
value-observed: 50.48
//
substance: QCKAKAQANM
value-observed: 35.27
//
substance: QCKIKIQINMWQ
value-observed: 36.23
//
substance: RGDKIRGDKI
value-observed: 15.01

Could you now look at the following substance, please?
Query string: Note b -sheet / % for the substance shown: HHHHKAKAKAKAYYYY
Result string: 44.29

###

Quick list: Tht category (> 1.5 to blank = +) per entry.
# Assay type: physicochemical
# condition-parameters: FigS26
# Experimental: 4 µL of 1 mg/mL peptide fibrils solution is added to a 20 µL, 50 µM ThT–solution in PBS. The mixture is incubated for 15 min at RT to allow binding of ThT dye with β–sheet rich structures. […] Fluorescence spectra were recorded on an Infinite® M1000 PRO microplate reader (Tecan) at λem = 488 nm upon excitation at λex = 440 nm with 10 nm bandwidths and multiple reads per well (3×3). […] Furthermore, fluorescence microscopy was conducted by staining 1 µL preformed fibrils (1 mg/mL) with 9 µL ThT (50 µM). […]

# count of solved cases: 2
substance: KFKFQFNMWQ [JG4]
Tht category (> 1.5 to blank = +): 1 (Tht category (> 1.5 to blank = +))

substance: CKIKIQIRGD [psis21]
Tht category (> 1.5 to blank = +): 0 (Tht category (> 1.5 to blank = +))

Query string: Note Tht category (> 1.5 to blank = +) for the substance shown: KIKIQIMQWN [VH16]
Result string: 0 (Tht category (> 1.5 to blank = +))

Query string: Note Tht category (> 1.5 to blank = +) for the substance shown: KIKIQIMWNQ [VH15]
Result string: 0 (Tht category (> 1.5 to blank = +))

Query string: Note Tht category (> 1.5 to blank = +) for the substance shown: KIKQIINMWQ [JG2]
Result string: 1 (Tht category (> 1.5 to blank = +))

Query string: Note Tht category (> 1.5 to blank = +) for the substance shown: NMWQKIKQII [JG8]
Result string: 0 (Tht category (> 1.5 to blank = +))

Query string: Note Tht category (> 1.5 to blank = +) for the substance shown: KIKIQINAWQ [JR3-II]
Result string: 1 (Tht category (> 1.5 to blank = +))

Query string: Note Tht category (> 1.5 to blank = +) for the substance shown: RGDKIKIQI [MG14]
Result string: 1 (Tht category (> 1.5 to blank = +))
